Details: Crystal; DTA
± gives the expanded uncertainty stated by the source.
Quantity: Normal melting temperature

Below, each entry is followed by its recorded Normal melting temperature result.
Quick one: give measured Normal melting temperature for C[C@H]1COc2c(N3CCN(C)CC3)c(F)cc3c(=O)c(C(=O)O)cn1c23
233.0 ± 3.1 °C

Quick one: give measured Normal melting temperature for CCN1CCN(c2cc3c(cc2F)c(=O)c(C(=O)O)cn3C2CC2)CC1
221.6 ± 0.7 °C

Quick one: give measured Normal melting temperature for CCn1cc(C(=O)O)c(=O)c2cc(F)c(N3CCNCC3)cc21
220.4 ± 2.2 °C

Query molecule follows.
Quick one: give measured Normal melting temperature for O=C(O)c1cn(C2CC2)c2cc(N3CCNCC3)c(F)cc2c1=O
270 ± 2.1 °C
